Please provide measured Emax for the entries that follow.
target: human mGluR5a receptor (Homo sapiens, UniProt P41594); construct: cDNA subcloned into pcDNA3.1(-); test: Cell-based functional Ca2+ mobilization assay (FDSS), potentiation of glutamate EC20 response; details: maximum % effect in concentration-response curve, as percent of response to maximally effective glutamate
Sequence (P41594 21-1180 isoform P41594-2 limits assumed): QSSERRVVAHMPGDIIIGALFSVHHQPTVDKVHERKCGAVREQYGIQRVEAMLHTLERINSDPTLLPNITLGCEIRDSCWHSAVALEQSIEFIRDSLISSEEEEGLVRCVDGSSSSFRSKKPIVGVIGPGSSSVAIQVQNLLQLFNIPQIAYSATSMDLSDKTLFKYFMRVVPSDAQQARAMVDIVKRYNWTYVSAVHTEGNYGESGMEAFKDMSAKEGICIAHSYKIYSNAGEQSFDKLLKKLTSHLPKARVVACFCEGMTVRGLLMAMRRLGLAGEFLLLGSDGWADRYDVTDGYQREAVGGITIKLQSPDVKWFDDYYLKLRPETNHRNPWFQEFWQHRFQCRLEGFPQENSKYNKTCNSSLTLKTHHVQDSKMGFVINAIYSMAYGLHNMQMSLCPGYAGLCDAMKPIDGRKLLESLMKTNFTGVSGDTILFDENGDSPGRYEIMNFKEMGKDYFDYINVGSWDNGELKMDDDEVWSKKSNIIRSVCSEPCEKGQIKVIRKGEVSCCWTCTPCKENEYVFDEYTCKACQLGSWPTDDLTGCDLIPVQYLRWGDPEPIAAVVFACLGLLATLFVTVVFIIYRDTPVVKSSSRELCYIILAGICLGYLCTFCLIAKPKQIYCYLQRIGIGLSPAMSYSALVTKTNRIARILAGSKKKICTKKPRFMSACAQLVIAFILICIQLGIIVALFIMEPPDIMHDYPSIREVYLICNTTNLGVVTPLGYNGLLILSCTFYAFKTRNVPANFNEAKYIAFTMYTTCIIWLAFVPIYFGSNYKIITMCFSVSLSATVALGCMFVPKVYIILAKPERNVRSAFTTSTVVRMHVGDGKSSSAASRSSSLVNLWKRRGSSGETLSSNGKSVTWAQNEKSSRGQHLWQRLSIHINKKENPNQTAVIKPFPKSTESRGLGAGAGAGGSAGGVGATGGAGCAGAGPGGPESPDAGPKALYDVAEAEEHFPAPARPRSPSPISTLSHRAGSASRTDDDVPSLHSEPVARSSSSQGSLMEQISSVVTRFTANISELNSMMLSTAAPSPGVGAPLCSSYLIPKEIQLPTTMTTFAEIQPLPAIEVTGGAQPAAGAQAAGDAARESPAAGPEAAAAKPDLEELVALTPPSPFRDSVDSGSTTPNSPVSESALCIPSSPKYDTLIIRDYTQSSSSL
One number for each entry, in %.

Sample records with Emax:
COMPOUND: O=C1c2cc(COc3ccccc3)nn2CCN1c1ccc(F)c2ccccc12 [Example 368]
RECORDED MEASUREMENT: 69
--
COMPOUND: O=C1c2cc(COc3ccccc3)nn2CCN1CC1CCC1 [Example 27]
RECORDED MEASUREMENT: 80
--
COMPOUND: CC(C)c1cccc(N2CCn3nc(COc4ccccc4)cc3C2=O)n1 [Example 111]
RECORDED MEASUREMENT: 68
--
COMPOUND: CC1CN(c2ccc(F)cc2)C(=O)c2cc(COc3ccc(F)cc3)nn21 (racemic) [Example 234]
RECORDED MEASUREMENT: 69
--
COMPOUND: Cc1cc(N2CCn3nc(COc4ccc(F)cc4)cc3C2=O)ccc1F [Example 225]
RECORDED MEASUREMENT: 58
--
COMPOUND: CN(C)c1cncc(N2CCn3nc(COc4ccccc4)cc3C2=O)n1 [Example 280]
RECORDED MEASUREMENT: 70
--
COMPOUND: CC1CN(c2ccc(F)cc2)C(=O)c2cc(COc3cccc(C#N)c3)nn21 (centres unmarked) [Example 241]
RECORDED MEASUREMENT: 21

// query # query: Emax of entry O=C1c2cc(COc3ccccc3)nn2CCN1c1cccc(CF)n1 [Example 76]
// result 69

###

biological target: human mGluR5a receptor (Homo sapiens); construct: cDNA subcloned into pcDNA3.1(-); assay: Cell-based functional Ca2+ mobilization assay (FDSS), potentiation of glutamate EC20 response; conditions: maximum % effect in concentration-response curve, as percent of response to maximally effective glutamate
READOUT: Emax (%)
Give bare numbers, in %.

Consider the worked cases shown below.
COMPOUND: COc1nccc(N2C(=O)c3cc(COc4ccccc4)nn3CC2C)n1 (stereo not shown)
Emax (%): 59
--
COMPOUND: Cc1cccc(N2CCn3nc(COc4ccccc4)cc3C2=O)c1
Emax (%): 65
--
COMPOUND: CC1Cn2nc(COc3ccccc3)cc2C(=O)N1c1ccc(F)cc1 (stereo not shown) [Example 157]
Emax (%): 63

// input: 4 compounds below; output: Emax (%) for each
1. COc1nc(N2CCn3nc(COc4ccccc4)cc3C2=O)ncc1F
2. CN1CCn2nc(COc3ccccc3)cc2C1=O
3. Cc1cccc(OCc2cc3n(n2)CC(C)N(c2ccc(F)cc2)C3=O)c1 (stereo not shown)
4. Cn1cc(N2CCn3nc(COc4ccccc4)cc3C2=O)cn1

// result
[71, 72, 68, 61]

###

READOUT: melting point

Use these answered entries as a reference point.
CHEMICAL STRUCTURE: O=C1c2cc(COc3ccccc3)nn2CCN1c1ccc(F)c(F)c1
RECORDED MEASUREMENT: > 300 °C

CHEMICAL STRUCTURE: Cc1cc(OCc2cc3n(n2)CCN(c2ccc(F)cc2)C3=O)ccn1
RECORDED MEASUREMENT: > 300 °C

Here is the next item to consider.
// query Data request, read-out melting point, for O=C1c2cc(COc3ccccc3)nn2CCN1CC1CCC1
// result > 300 °C
